Assay: differential killing of epithelial or mesenchymal cells, primary screen, imaging, PC-3E GFP, TEM4-18 mCherry, co-culture (AID 1345086);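 note: cells exposed to compound for 72 h before imaging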
Settings: imaging cell counts, measured here: epithelial PC-3E GFP cell survival, at 1 µM
Quick reference for normalised cell number among some compounds

Look over these answered cases.
compound	normalised cell number
COC(=O)CC1C(C)(C)C(OC(C)=O)[C@@H]2[C@@H](OC(C)=O)[C@]34O[C@@]2(O)C1(C)C3CC[C@]1(C)C4=CC(=O)O[C@H]1c1ccoc1 (some centres undefined)	0.89
CN(C)c1cccc2c(S(N)(=O)=O)cccc12	1.15

Task: Sample O=C(O)CCCCCCCC(O)C(O)CCCCCCO (centres undefined) — what was its normalised cell number?
Result: 1.11
